Target: EPHB1 (UniProt P54762)
Sequence (P54762 whole entry, looked up): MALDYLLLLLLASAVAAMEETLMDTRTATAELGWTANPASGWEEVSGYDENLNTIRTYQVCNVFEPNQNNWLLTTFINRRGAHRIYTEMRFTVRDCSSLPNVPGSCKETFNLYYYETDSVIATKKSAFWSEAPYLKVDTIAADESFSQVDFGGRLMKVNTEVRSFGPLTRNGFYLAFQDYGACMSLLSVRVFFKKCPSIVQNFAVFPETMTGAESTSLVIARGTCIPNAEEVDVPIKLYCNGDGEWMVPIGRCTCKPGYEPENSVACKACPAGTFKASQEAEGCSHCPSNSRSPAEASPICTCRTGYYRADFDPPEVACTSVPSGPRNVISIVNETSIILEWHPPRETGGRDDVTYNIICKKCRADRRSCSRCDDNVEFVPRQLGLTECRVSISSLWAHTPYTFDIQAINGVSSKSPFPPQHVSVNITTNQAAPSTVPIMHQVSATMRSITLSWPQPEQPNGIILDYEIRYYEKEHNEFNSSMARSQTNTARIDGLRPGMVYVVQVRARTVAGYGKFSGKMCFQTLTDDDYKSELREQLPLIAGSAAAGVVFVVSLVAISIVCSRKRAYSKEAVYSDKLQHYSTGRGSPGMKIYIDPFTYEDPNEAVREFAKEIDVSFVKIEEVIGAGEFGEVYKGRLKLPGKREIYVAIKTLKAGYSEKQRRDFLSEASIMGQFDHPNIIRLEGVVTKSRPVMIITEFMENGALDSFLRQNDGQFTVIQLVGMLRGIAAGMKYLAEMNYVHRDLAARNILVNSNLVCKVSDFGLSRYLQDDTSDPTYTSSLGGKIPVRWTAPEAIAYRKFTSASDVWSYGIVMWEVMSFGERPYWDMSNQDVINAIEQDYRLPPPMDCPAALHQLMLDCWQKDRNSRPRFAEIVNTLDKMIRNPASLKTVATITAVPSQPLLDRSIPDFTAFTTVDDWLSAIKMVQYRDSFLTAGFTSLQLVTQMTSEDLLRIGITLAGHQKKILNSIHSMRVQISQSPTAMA
Assay: phosphorylation enrichment, bacterial display (enrichment ratio); higher = better substrate or ligand; peptides without Tyr show the background;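 also: 11-residue human phosphosite peptides and single-mutation variants displayed on the E. coli surface, counted by deep sequencing, each peptide's frequency after selection divided by its frequency in the unselected input library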;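 also: frequency after pTyr selection over input frequency; kinase dosed for 20-30% of maximal phosphorylation in three min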
Label rule, in plain words: phosphorylation enrichment of 0.4 and up is label 1, under 0.4 is label 0.

seq_string: LQKNIYSEELR [LMNA_Y211_F206L]
discrete_label: label 1
//
seq_string: YRVDCYKNFVA [FHL1_Y213_C209R]
discrete_label: label 1
//
seq_string: IRKKYYRAILE [CHD7_Y1218_Q1214R]
discrete_label: label 0
//
seq_string: TPRNTYKMTSL [MKI67_Y849]
discrete_label: label 0
//
seq_string: ADRARYSAFGG [RBM4_Y361]
discrete_label: label 0
//
seq_string: IGNGYYFHVFS [MYBPC3_Y1136_R1138H]
discrete_label: label 1
//
seq_string: GEFHVYRHLRR [PRKRIP1_Y82]
discrete_label: label 1

---

Molecular target: Jak2 (UniProt O60674)
Sequence (O60674 whole entry, looked up): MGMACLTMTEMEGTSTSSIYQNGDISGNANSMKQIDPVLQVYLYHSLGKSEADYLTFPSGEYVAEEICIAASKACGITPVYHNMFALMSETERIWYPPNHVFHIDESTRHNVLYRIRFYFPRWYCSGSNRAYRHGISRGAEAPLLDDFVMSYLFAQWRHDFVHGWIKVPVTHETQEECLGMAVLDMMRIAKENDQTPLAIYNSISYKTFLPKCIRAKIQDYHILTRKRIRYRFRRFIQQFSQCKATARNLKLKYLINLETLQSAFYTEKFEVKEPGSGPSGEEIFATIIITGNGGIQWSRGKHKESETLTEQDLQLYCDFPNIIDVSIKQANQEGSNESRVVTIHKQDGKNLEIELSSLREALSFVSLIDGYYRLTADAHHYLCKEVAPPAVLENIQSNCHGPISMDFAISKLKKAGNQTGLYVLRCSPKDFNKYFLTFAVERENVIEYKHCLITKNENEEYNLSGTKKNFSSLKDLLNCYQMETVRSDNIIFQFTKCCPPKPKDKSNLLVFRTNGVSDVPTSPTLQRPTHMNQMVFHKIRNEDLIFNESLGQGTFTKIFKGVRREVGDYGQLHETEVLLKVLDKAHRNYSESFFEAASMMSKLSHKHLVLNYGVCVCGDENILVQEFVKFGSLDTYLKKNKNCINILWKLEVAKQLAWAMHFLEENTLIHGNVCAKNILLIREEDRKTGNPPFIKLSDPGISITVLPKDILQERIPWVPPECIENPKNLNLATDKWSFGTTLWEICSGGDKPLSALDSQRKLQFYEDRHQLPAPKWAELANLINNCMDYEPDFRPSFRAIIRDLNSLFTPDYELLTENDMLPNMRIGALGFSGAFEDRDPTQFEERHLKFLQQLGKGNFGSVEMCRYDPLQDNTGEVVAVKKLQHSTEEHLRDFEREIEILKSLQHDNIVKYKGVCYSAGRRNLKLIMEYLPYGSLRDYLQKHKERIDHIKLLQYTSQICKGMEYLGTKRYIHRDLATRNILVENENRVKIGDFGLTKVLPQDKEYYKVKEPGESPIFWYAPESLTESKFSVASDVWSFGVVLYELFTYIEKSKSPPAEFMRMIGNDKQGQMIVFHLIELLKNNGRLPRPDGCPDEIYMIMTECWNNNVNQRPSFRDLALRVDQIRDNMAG
Experiment: phosphorylation enrichment, bacterial display (enrichment ratio); higher = better substrate or ligand; peptides without Tyr show the background
Please mark Yes if the recorded phosphorylation enrichment is equal to or greater than 0.9, and No if it falls below.

seq_string: YHRQLYHKCTH [F12_Y58]
discrete_label: No

seq_string: IYGASYVPFAA [RBM47_Y541]
discrete_label: Yes

seq_string: QMVGMYASSSM [AVPR2_Y124_Y128S]
discrete_label: No

seq_string: VKPRRYRPGTV [H3-5_Y41_H39R]
discrete_label: No

seq_string: ANRNVYEVEPT [MEGF10_Y1075]
discrete_label: No

seq_string: ETAENYLGYTA [HSPA9_Y181_H184Y]
discrete_label: No

seq_string: GRRNTCYASIA [ACADM_Y352_Y352C]
discrete_label: No

seq_string: NKHTTYTMEHI [ACTN1_Y708_N707T]
discrete_label: No

seq_string: MKALGYFAVVK [OPA1_Y498_T503K]
discrete_label: Yes

seq_string: GDPTEYYITAI [IGSF22_Y501_S503I]
discrete_label: Yes

seq_string: NFFDLYGGEKF [PTPN11_Y66_D61N_YF]
discrete_label: No

seq_string: GGEAIYAAPFA [Abl_opt_1995]
discrete_label: No

seq_string: GADDSYYTARS [ZAP70_Y492]
discrete_label: Yes

seq_string: VLTSKHRGGGG [HBA1_Y141_Y141H]
discrete_label: No

seq_string: EDEGLYTVRVP [MYOM3_Y343_M344T]
discrete_label: Yes

seq_string: GDPTEYFSTAI [IGSF22_Y501_YF]
discrete_label: Yes

seq_string: GRQWNYVASML [KLHL4_Y552_S557L]
discrete_label: No

seq_string: TISPFYCQSLF [CRYAA_Y48_R49C_YF]
discrete_label: Yes

seq_string: RLLVVYPWTQK [HBG1_Y36_R41K]
discrete_label: No

seq_string: SLALFYRKVFH [RBL1_Y792_YF]
discrete_label: Yes

seq_string: PMDGEYFTLQI [TP53_Y327_L323M]
discrete_label: Yes

seq_string: RQSRNYLGGFA [SYK_Y47]
discrete_label: No

seq_string: STEPQYQPGEN [SRC_Y530]
discrete_label: No

seq_string: TKVVHYWKWIK [KLK2_Y249_R250W]
discrete_label: No

seq_string: RRESPYGGGGG [FUS_Y526_R524S]
discrete_label: No
